Catalogue of compounds with associated Ki
Target: Dihydrofolate reductase (Mus musculus)
Sequence (P00375 whole entry): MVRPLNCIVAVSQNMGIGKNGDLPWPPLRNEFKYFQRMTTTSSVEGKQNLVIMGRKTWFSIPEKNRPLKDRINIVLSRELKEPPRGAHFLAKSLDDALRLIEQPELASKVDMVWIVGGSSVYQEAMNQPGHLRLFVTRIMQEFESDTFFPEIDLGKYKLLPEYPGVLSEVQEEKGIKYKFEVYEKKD
Test: Evaluated for inhibition of dihydrofolate reductase (DHFR) isolated from L1210 cells

// known answers, use as guide
- compound: "Cc1c(CCc2ccc(C(=O)NC(CCC(=O)O)C(=O)O)cc2)cnc2nc(N)nc(N)c12 (centres undefined)"
  Ki: "0.0283 nM"
- compound: "Cc1c(CCc2ccc(C(=O)NC(CCC(=O)O)C(=O)O)cc2)cnc2nc(N)[nH]c(=O)c12 (centres undefined)"
  Ki: "> 1 nM"
- compound: "CCC1c2c(O)nc(N)nc2NCC1CCc1ccc(C(=O)NC(CCC(=O)O)C(=O)O)cc1 (racemic)"
  Ki: "> 1 nM"

### Prompt Give its Ki value. Item: CC1c2c(O)nc(N)nc2NCC1CCc1ccc(C(=O)NC(CCC(=O)O)C(=O)O)cc1 (racemic)
### Response > 1 nM

====

Catalogue of compounds with associated pIC50
Molecular target: Trifunctional purine biosynthetic protein adenosine-3 (Homo sapiens) (UniProt P22102)
Sequence (P22102 whole entry, looked up): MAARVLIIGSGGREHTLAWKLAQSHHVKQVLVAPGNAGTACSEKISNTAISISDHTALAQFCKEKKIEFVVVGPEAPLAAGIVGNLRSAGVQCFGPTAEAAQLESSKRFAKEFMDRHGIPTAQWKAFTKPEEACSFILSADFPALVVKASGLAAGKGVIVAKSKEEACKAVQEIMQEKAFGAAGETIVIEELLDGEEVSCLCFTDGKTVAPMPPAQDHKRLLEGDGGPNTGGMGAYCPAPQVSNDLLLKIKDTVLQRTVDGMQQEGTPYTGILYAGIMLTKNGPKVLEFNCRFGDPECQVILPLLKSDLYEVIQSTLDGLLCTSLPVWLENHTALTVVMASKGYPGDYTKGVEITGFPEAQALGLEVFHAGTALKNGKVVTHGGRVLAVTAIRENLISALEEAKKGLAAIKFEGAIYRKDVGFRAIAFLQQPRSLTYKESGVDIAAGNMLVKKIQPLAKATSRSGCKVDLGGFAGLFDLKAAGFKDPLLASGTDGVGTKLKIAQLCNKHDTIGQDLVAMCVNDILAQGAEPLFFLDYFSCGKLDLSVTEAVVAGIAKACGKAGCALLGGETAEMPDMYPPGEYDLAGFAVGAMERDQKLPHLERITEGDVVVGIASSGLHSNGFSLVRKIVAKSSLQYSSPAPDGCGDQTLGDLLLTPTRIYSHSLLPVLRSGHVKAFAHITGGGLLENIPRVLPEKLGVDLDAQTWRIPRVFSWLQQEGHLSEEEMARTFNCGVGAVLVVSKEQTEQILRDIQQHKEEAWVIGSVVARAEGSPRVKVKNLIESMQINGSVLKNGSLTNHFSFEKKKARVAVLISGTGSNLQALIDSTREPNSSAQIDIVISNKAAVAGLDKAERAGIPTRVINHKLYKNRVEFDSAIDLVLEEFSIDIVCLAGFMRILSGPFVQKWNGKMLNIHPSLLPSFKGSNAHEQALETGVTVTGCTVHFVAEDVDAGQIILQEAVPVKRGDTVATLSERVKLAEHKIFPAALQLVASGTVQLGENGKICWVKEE
Test: Inhibition of GAR transformylase from mammalian Manca
Keep it numeric: pIC50 is minus log10 of the concentration in mol/L.

- compound: "CCC1c2c(O)nc(N)nc2NCC1CCc1ccc(C(=O)NC(CCC(=O)O)C(=O)O)cc1 (racemic)"
  pIC50: 6.30

Now for the compound whose pIC50 we want.
### Prompt Give its pIC50 value. Item: CC1c2c(O)nc(N)nc2NCC1CCc1ccc(C(=O)NC(CCC(=O)O)C(=O)O)cc1 (racemic)
### Response 4.85
